Target: T1, IL23R_huFC (human, UniProt Q5VWK5 24-353)
T1 sequence (looked up): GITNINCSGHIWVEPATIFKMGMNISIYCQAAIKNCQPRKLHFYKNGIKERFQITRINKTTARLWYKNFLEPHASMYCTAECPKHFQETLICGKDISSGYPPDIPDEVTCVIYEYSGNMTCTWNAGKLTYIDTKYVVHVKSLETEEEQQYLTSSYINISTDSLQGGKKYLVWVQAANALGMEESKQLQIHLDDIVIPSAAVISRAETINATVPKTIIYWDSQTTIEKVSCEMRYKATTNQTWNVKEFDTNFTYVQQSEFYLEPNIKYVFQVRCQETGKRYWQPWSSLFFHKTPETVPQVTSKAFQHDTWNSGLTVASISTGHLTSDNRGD
Test: human ELISA vs IL-23
pIC50: −log10 of the molar value. *1 amine or outer side, *2 acyl side, *3 side chain or, on linkers, in order; H or OH if unused. Bridges are numbered along the chain shown (N, C = ends). Primed or numbered codes have the meaning given here. [ ]: non-standard residue; d: D form. Phe(4-OMe)(3) = O-methyl-L-tyrosine (4-methoxy-L-phenylalanine), COc1ccc(C[C@H](N[*:1])C(=O)[*:2])cc1; Phe(4-OMe)(4) = O-methyl-L-tyrosine, COc1ccc(C[C@H](N[*:1])C(=O)[*:2])cc1; Bip = N[C@@H](Cc1ccc(-c2ccccc2)cc1)C(=O)O; 2Nal = N[C@@H](Cc1ccc2ccccc2c1)C(=O)O; AEF = NCCOc1ccc(C[C@H](N)C(=O)O)cc1; Gly(octyl) = CCCCCCCC[C@H](N)C(=O)O; αMeL = CC(C)C[C@](C)(N)C(=O)O; αMeK = C[C@](N)(CCCCN)C(=O)O; Iva = CC[C@](C)(N)C(=O)O; Thp = NC1(C(=O)O)CCOCC1; Abu = CC[C@H](N)C(=O)O; Aib = CC(C)(N)C(=O)O
Quantity: pIC50

{"Binder": "Ac-[Abu]QTWQC[AEF][2Nal][Iva]K(Ac)NG-NH2 (thioether 1-6) [Ac-Cyclo-[[Abu]-QTWQC]-[Phe[4-(2-aminoethoxy)]]-[2-Nal]-[α-Me-Gly(Ethyl)]Lys(Ac)]-NG-NH2]", "pIC50": "> 8.00"}
{"Binder": "Ac-[Abu]QTWQC[Phe(4-OMe)(3)][Gly(octyl)][αMeK]K(Ac)NG-NH2 (thioether 1-6) [Ac-Cyclo-[[Abu]-QTWQC]-[Phe(4-OMe)]-[Octgly]-[α-MeLys]-[Lys(Ac)]-NG-NH2]", "pIC50": "~5.00"}
{"Binder": "Ac-[Abu]QTWQC[AEF][2Nal][αMeK]ENN-NH2 (thioether 1-6) [Ac-Cyclo-[[Abu]-QTWQC]-[Phe[4-(2-aminoethoxy)]]-[2-Nal]-[α-MeLys]-ENN-NH2]", "pIC50": "> 8.00"}

Problem: Item under review: Ac-[Abu]QTWQC[Gly(octyl)][2Nal][αMeK]K(Ac)NG-NH2 (thioether 1-6) [Ac-Cyclo-[[Abu]-QTWQC]-[Octgly]-[2-Nal]-[α-MeLys]-[Lys(Ac)]-NG-NH2] . Reported pIC50?
Result: ~5.00

Problem: I have this binder here, Ac-R[Abu]QTWQC[AEF][2Nal][αMeK]ENN-NH2 (thioether 2-7) [Ac-Arg-Cyclo-[[Abu]-QTWQC]-[Phe[4-(2-aminoethoxy)]]-[2-Nal]-[α-MeLys]-ENN-NH2] , and I need its recorded pIC50.
Result: > 8.00

Problem: # query: pIC50 of entry Ac-[Abu]QTWQC[AEF][2Nal][Aib]K(Ac)NG-NH2 (thioether 1-6) [Ac-Cyclo-[[Abu]-QTWQC]-[Phe[4-(2-aminoethoxy)]]-[2-Nal]-[Aib]-[Lys(Ac)]-NG-NH2]
Result: > 8.00

Problem: What measured pIC50 goes with Ac-[Abu]QTWQC[AEF][2Nal][Thp]ENN-NH2 (thioether 1-6) [Ac-Cyclo-[[Abu]-QTWQC]-[Phe[4-(2-aminoethoxy)]]-[2-Nal]-[4-amino-4-carboxy-tetrahydropyran]-ENN-NH2] ?
Result: > 8.00

Problem: Looking for the measured pIC50 of Ac-[Abu]QTWQC[AEF][2Nal][αMeK]QNG-NH2 (thioether 1-6) [Ac-Cyclo-[[Abu]-QTWQC]-[Phe[4-(2-aminoethoxy)]]-[2-Nal]-[α-MeLys]-QNG-NH2] , can you help?
Result: > 8.00

Problem: Recorded pIC50 for Ac-[Abu]QTWQC[AEF]W[αMeL]ENG-NH2 (thioether 1-6) [Ac-Cyclo-[[Abu]-QTWQC]-[Phe[4-(2-aminoethoxy)]]-W-[α-Me-Leu]-ENG-NH2] , please?
Result: > 8.00

Problem: Which pIC50 value belongs to Ac-[Abu]QT[Bip]QC[Phe(4-OMe)(4)][2Nal][αMeK]K(Ac)NG-NH2 (thioether 1-6) [Ac-Cyclo-[[Abu]-QT-[Bip]-QC]-[Phe(4-OMe)]-[2-Nal][α-MeLys]-[Lys(Ac)]-NG-NH2] ?
Result: ~5.00
